Source of measurements: PubChem BioAssay AID1963438

tested on: NCI-H510 multicellular tumor spheroid growth, % test/control; test: Anticancer human tumor NCI-H510 cell line growth inhibition [Asc]; conditions: second compound 1 µM; first compound 3 µM; hits give low values;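 also: spheroids exposed to agents for 7 days; 100% = DMSO vehicle control wells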
readoutType: viability, T/C (%)
Give the quantity in %, number only.

Ask: Supply viability, T/C value. Item: CCN1C(C(=O)NC23CCC(C(=O)O)(CC2)CC3)C(c2cccc(Cl)c2F)C2(C(=O)Nc3cc(Cl)ccc32)C12CCCCC2 (centres undefined) + Cc1c(S(C)(=O)=O)c(-c2cc(F)cc(N3CCN(c4ccc(NS(=O)(=O)c5ccc(NC(CCN6CCC(C(=O)OCCCP(=O)(O)O)CC6)CSc6ccccc6)c(S(=O)(=O)C(F)(F)F)c5)cc4)CC3)c2)c(-c2ccc(Cl)cc2)n1C(C)C
Reply: 95

Ask: Supply viability, T/C value. Item: Cc1nc(N2CCC3(CC2)COC(C)C3N)c(CO)nc1Sc1ccnc(N)c1Cl (centres undefined) + CNC(C)C(=O)NC1CN(S(=O)(=O)c2cccc(S(=O)(=O)N3CCC4CCC(C(=O)NC(c5ccccc5)c5ccccc5)N4C(=O)C(NC(=O)C(C)NC)C3)c2)CCC2CCC(C(=O)NC(c3ccccc3)c3ccccc3)N2C1=O
Reply: 100

Ask: Supply viability, T/C value. Item: CCN1C(C(=O)NC23CCC(C(=O)O)(CC2)CC3)C(c2cccc(Cl)c2F)C2(C(=O)Nc3cc(Cl)ccc32)C12CCCCC2 (centres undefined) + CNC(C)C(=O)NC1CN(S(=O)(=O)c2cccc(S(=O)(=O)N3CCC4CCC(C(=O)NC(c5ccccc5)c5ccccc5)N4C(=O)C(NC(=O)C(C)NC)C3)c2)CCC2CCC(C(=O)NC(c3ccccc3)c3ccccc3)N2C1=O
Reply: 115

Ask: Supply viability, T/C value. Item: Cc1nc(N2CCC3(CC2)COC(C)C3N)c(CO)nc1Sc1ccnc(N)c1Cl (centres undefined) + Cc1c(S(C)(=O)=O)c(-c2cc(F)cc(N3CCN(c4ccc(NS(=O)(=O)c5ccc(NC(CCN6CCC(C(=O)OCCCP(=O)(O)O)CC6)CSc6ccccc6)c(S(=O)(=O)C(F)(F)F)c5)cc4)CC3)c2)c(-c2ccc(Cl)cc2)n1C(C)C
Reply: 130

---

test system: NCI-H510 multicellular tumor spheroid growth, % test/control; experiment: Anticancer human tumor NCI-H510 cell line growth inhibition [Asc]; conditions: second compound 0.0949 µM; first compound 0.00316 µM; hits give low values;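 also: spheroids exposed to agents for 7 days; 100% = DMSO vehicle control wells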
readoutType: viability, T/C (%)
Give the quantity in %, number only.

Ask: Supply viability, T/C value. Item: NC1CCC(NC2CC2c2ccccc2)CC1 (stereo unspecified) + CCN1C(C(=O)NC23CCC(C(=O)O)(CC2)CC3)C(c2cccc(Cl)c2F)C2(C(=O)Nc3cc(Cl)ccc32)C12CCCCC2
Reply: 77.5

Ask: Supply viability, T/C value. Item: COc1c(OCCCN2CCOCC2)ccc2c3n(c(=NC(=O)c4cnc(N)nc4)nc12)CCN3 + CCN1C(C(=O)NC23CCC(C(=O)O)(CC2)CC3)C(c2cccc(Cl)c2F)C2(C(=O)Nc3cc(Cl)ccc32)C12CCCCC2
Reply: 94.3

Ask: Supply viability, T/C value. Item: CNC(C)C(=O)NC1CN(S(=O)(=O)c2cccc(S(=O)(=O)N3CCC4CCC(C(=O)NC(c5ccccc5)c5ccccc5)N4C(=O)C(NC(=O)C(C)NC)C3)c2)CCC2CCC(C(=O)NC(c3ccccc3)c3ccccc3)N2C1=O (stereo unspecified) + CCN1C(C(=O)NC23CCC(C(=O)O)(CC2)CC3)C(c2cccc(Cl)c2F)C2(C(=O)Nc3cc(Cl)ccc32)C12CCCCC2
Reply: 98.5

Ask: Supply viability, T/C value. Item: CCN1CCN(Cc2ccc(Nc3ncc(F)c(-c4cc(F)c5nc(C)n(C(C)C)c5c4)n3)nc2)CC1 + CCN1C(C(=O)NC23CCC(C(=O)O)(CC2)CC3)C(c2cccc(Cl)c2F)C2(C(=O)Nc3cc(Cl)ccc32)C12CCCCC2
Reply: 97.4

Ask: Supply viability, T/C value. Item: O=C(c1ccc(F)c(F)c1Nc1ccc(I)cc1F)N1CC(O)([C@@H]2CCCCN2)C1 + CCN1C(C(=O)NC23CCC(C(=O)O)(CC2)CC3)C(c2cccc(Cl)c2F)C2(C(=O)Nc3cc(Cl)ccc32)C12CCCCC2
Reply: 127

Ask: Supply viability, T/C value. Item: Cn1ncnc1[C@H]1c2n[nH]c(=O)c3cc(F)cc(c23)N[C@@H]1c1ccc(F)cc1 + CCN1C(C(=O)NC23CCC(C(=O)O)(CC2)CC3)C(c2cccc(Cl)c2F)C2(C(=O)Nc3cc(Cl)ccc32)C12CCCCC2
Reply: 95.4
